The measured values listed here are drawn from the supplement of paper PMC3334620.

PBM E-score reference
Biological target: Cst6 (UniProt P40535)
Sequence (P40535 whole entry): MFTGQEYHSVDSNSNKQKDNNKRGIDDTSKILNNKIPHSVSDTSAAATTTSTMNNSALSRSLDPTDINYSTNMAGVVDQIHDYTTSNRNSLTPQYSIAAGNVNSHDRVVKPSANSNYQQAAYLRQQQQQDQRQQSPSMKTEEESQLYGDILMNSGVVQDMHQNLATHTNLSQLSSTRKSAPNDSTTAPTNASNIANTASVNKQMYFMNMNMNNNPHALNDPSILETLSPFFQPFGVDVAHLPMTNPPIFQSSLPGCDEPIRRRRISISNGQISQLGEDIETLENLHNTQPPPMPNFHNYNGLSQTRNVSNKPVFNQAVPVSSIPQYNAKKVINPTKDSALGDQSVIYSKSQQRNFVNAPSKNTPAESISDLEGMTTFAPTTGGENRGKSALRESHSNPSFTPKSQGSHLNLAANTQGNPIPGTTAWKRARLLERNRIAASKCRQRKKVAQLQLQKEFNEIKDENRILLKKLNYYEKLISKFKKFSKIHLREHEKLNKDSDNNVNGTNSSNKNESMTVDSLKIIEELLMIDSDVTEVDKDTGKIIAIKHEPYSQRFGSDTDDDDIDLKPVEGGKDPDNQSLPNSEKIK
Assay: PBM E-score (8-mer binding enrichment) (E-score (-0.5 to 0.5)); higher = stronger / more preferred TF binding
Conditions: protein concentration: 200 nM; construct: GST-DNA-binding domain
The full ranking holds about 33,000 sequences; the median of “E-score (-0.5 to 0.5)” is about -0.016, and the highest 2% start at about 0.31. Shown is part of a subset that was picked to be rich in the highest values.
// return just the number, without any unit appended

Task: Request the reported PBM E-score associated with `GGCGTCAC`
Result: 0.431

Task: Request the reported PBM E-score associated with `TCCTAGCA`
Result: -0.162

Task: Request the reported PBM E-score associated with `CACGTCTA`
Result: -0.0114

Task: Request the reported PBM E-score associated with `CTTCGTCA`
Result: 0.336

Task: Request the reported PBM E-score associated with `GGCGTCTA`
Result: 0.0648

Task: Request the reported PBM E-score associated with `CGTCGTCA`
Result: 0.258

###

Molecular target: Cst6 (UniProt P40535)
Assay: PBM E-score (8-mer binding enrichment) (E-score (-0.5 to 0.5)); higher = stronger / more preferred TF binding
Conditions: protein concentration: 200 nM; construct: GST-DNA-binding domain
The full ranking holds about 33,000 sequences; the median of “E-score (-0.5 to 0.5)” is about -0.016, and the highest 2% start at about 0.31. The sample holds the highest values, similar sequences and a random draw of the others, so the mix is not that of the screen.
RECORDED_METRIC: PBM E-score
// return just the number, without any unit appended

ATTACGTA; 0.49

Task: Request the reported PBM E-score associated with `ACACGTAG`
Result: 0.0917

Task: Request the reported PBM E-score associated with `GAAATTGA`
Result: 0.153

Task: Request the reported PBM E-score associated with `AACACCTC`
Result: -0.0672

###

Biological target: Cst6 (UniProt P40535)
Experiment: PBM E-score (8-mer binding enrichment) (E-score (-0.5 to 0.5)); higher = stronger / more preferred TF binding
Details: protein concentration: 200 nM; construct: GST-DNA-binding domain
Whole data set: some 33,000 sequences, median “E-score (-0.5 to 0.5)” near -0.016, cut for the highest 2% near 0.31. Only a selection was taken, and the highest values are over-represented in it overall.
RECORDED_METRIC: PBM E-score
// return just the number, without any unit appended

CGTCATGA; 0.461
ATAAGAGA; 0.217
ACGTGCAG; 0.0472

Task: Request the reported PBM E-score associated with `AATTATTG`
Result: 0.252

Task: Request the reported PBM E-score associated with `CGGCGTCC`
Result: 0.113

Task: Request the reported PBM E-score associated with `CACATCAG`
Result: -0.0727

Task: Request the reported PBM E-score associated with `GAGCACCA`
Result: -0.219

Task: Request the reported PBM E-score associated with `CGGTCTTC`
Result: -0.0638

Task: Request the reported PBM E-score associated with `TCGCGTCA`
Result: 0.369

Task: Request the reported PBM E-score associated with `CGTCATGC`
Result: 0.472

Task: Request the reported PBM E-score associated with `AGGGCCTA`
Result: -0.327

Task: Request the reported PBM E-score associated with `ATTTATTA`
Result: 0.357

Task: Request the reported PBM E-score associated with `GACTATCA`
Result: -0.104

Task: Request the reported PBM E-score associated with `CGCCAGTA`
Result: -0.0657

Task: Request the reported PBM E-score associated with `AATTATTC`
Result: 0.219

Task: Request the reported PBM E-score associated with `GATAGTAA`
Result: 0.14

###

Target: Cst6 (UniProt P40535)
Test: PBM E-score (8-mer binding enrichment) (E-score (-0.5 to 0.5)); higher = stronger / more preferred TF binding
Settings: protein concentration: 200 nM; construct: GST-DNA-binding domain
Whole data set: some 33,000 sequences, median “E-score (-0.5 to 0.5)” near -0.016, cut for the highest 2% near 0.31. The full list was thinned out, with the highest values kept by preference.
RECORDED_METRIC: PBM E-score
// return just the number, without any unit appended

CACGTTAC; 0.143

Task: Lab request: please report PBM E-score under test system Cst6 (UniProt P40535) for `GTGACGAA`
Result: 0.454

Task: Lab request: please report PBM E-score under test system Cst6 (UniProt P40535) for `TACGTTAA`
Result: 0.189

Task: Lab request: please report PBM E-score under test system Cst6 (UniProt P40535) for `CAACACCC`
Result: -0.142

Task: Lab request: please report PBM E-score under test system Cst6 (UniProt P40535) for `ACGTAAAT`
Result: 0.385

Task: Lab request: please report PBM E-score under test system Cst6 (UniProt P40535) for `CTGACGAA`
Result: 0.29

Task: Lab request: please report PBM E-score under test system Cst6 (UniProt P40535) for `GACGTTAA`
Result: 0.32

###

Target: Cst6 (UniProt P40535)
Experiment: PBM E-score (8-mer binding enrichment) (E-score (-0.5 to 0.5)); higher = stronger / more preferred TF binding
Conditions: protein concentration: 200 nM; construct: GST-DNA-binding domain
Whole data set: some 33,000 sequences, median “E-score (-0.5 to 0.5)” near -0.016, cut for the highest 2% near 0.31. Many of the other results were omitted from the sample, so the highest values are more common in it than they were.
Heads up, the class ranges for PBM E-score are lower level: < 0.1; middle level: ≥ 0.1 and < 0.4; upper level: ≥ 0.4

The examples below pair each entry with its known result.
AAGGCGCT; middle level
CCTCACCC; lower level
GTATGTTA; middle level
GGATGTCA; middle level

Task: Bin this entry: `GTATGTAA`
Result: middle level

Task: Bin this entry: `GTATGTCA`
Result: upper level

Task: Bin this entry: `ATATGTCC`
Result: middle level

###

Target: Cst6 (UniProt P40535)
Experiment: PBM E-score (8-mer binding enrichment) (E-score (-0.5 to 0.5)); higher = stronger / more preferred TF binding
Details: protein concentration: 200 nM; construct: GST-DNA-binding domain
In all, about 33,000 sequences were measured (“E-score (-0.5 to 0.5)”: median about -0.016, highest 2% from about 0.31 on). Shown is part of a subset that was picked to be rich in the highest values.
PBM E-score reference
// return just the number, without any unit appended

TCCTTGAA; -0.0366

Task: Request the reported PBM E-score associated with `ACAGTGAA`
Result: 0.146

Task: Request the reported PBM E-score associated with `CATCTAGA`
Result: 0.019

###

Biological target: Cst6 (UniProt P40535)
Experiment: PBM E-score (8-mer binding enrichment) (E-score (-0.5 to 0.5)); higher = stronger / more preferred TF binding
Conditions: protein concentration: 200 nM; construct: GST-DNA-binding domain
In all, about 33,000 sequences were measured (“E-score (-0.5 to 0.5)”: median about -0.016, highest 2% from about 0.31 on). For the sample, the highest values were picked, then their nearest neighbours and some sequences at random.
RECORDED_METRIC: PBM E-score
// return just the number, without any unit appended

TCGTTACA; 0.0818
CGGCTAGA; -0.038
GGACGTCA; 0.468
GCATCGAA; -0.0745
AGTATGAG; 0.0817
CCCAAGAC; -0.0855
TGACGTCA; 0.5
GGACGTCC; -0.128
CTGCTAAG; -0.279
AAACGGCC; 0.084

Task: Lab request: please report PBM E-score under test system Cst6 (UniProt P40535) for `CCATTGCC`
Result: 0.0353

Task: Lab request: please report PBM E-score under test system Cst6 (UniProt P40535) for `CTGCGCTC`
Result: -0.292

Task: Lab request: please report PBM E-score under test system Cst6 (UniProt P40535) for `TTTATAAA`
Result: 0.359

Task: Lab request: please report PBM E-score under test system Cst6 (UniProt P40535) for `CGTATGAG`
Result: 0.133

Task: Lab request: please report PBM E-score under test system Cst6 (UniProt P40535) for `ACATCTGC`
Result: -0.0513

Task: Lab request: please report PBM E-score under test system Cst6 (UniProt P40535) for `AAAGCGCT`
Result: 0.183

Task: Lab request: please report PBM E-score under test system Cst6 (UniProt P40535) for `AGACGTCC`
Result: -0.00823

Task: Lab request: please report PBM E-score under test system Cst6 (UniProt P40535) for `CGACGTCC`
Result: -0.0701

Task: Lab request: please report PBM E-score under test system Cst6 (UniProt P40535) for `ATCCCTCG`
Result: -0.263

Task: Lab request: please report PBM E-score under test system Cst6 (UniProt P40535) for `CAAAAGAA`
Result: 0.239

Task: Lab request: please report PBM E-score under test system Cst6 (UniProt P40535) for `CGAAGTTA`
Result: 0.11

Task: Lab request: please report PBM E-score under test system Cst6 (UniProt P40535) for `AGTATGAC`
Result: 0.354

Task: Lab request: please report PBM E-score under test system Cst6 (UniProt P40535) for `AAAACCGA`
Result: 0.0246
